# measurementTarget: Histone deacetylase 1 (Homo sapiens, UniProt Q13547)
# Sequence (Q13547 whole entry): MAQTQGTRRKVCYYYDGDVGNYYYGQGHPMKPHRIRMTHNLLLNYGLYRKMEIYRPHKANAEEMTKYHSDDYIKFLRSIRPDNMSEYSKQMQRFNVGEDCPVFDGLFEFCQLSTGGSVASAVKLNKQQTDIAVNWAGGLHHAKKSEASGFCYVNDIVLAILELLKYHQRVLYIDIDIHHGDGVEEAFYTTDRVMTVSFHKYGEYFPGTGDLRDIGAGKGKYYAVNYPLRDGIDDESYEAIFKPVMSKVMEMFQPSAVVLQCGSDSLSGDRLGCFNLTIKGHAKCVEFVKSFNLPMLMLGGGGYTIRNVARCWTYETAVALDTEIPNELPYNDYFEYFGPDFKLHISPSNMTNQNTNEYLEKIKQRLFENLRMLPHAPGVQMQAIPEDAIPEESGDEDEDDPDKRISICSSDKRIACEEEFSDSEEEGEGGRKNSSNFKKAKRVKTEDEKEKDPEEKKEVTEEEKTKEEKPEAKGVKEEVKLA
pEC50: −log10 of the molar value.

- structureString: "Nc1ccccc1NC(=O)CCCCCCNC(=O)c1ccc(-c2ccccc2)nc1"
  pEC50: 5.30

* * *

# Test system: HT-1080
# procedureText: Inhibition of human HT1080 cells
# Type: functional, cell-based

- structureString: "O=C(CCCCCCc1cnc(-c2ccc(Br)cc2)o1)NO"
  resultUnit: "µM"
  IC50: 27
- structureString: "O=C(CCCCCCc1ncc(-c2ccc(-c3ccc(Cl)cc3)cc2)o1)NO"
  resultUnit: "µM"
  IC50: 0.66
- structureString: "O=C(CCCCCCc1nc(-c2ccccc2)cs1)NO"
  resultUnit: "µM"
  IC50: 5.07
- structureString: "O=C(CCCCCCc1cnc(-c2ccc(-c3ccccc3)cc2)o1)NO"
  resultUnit: "µM"
  IC50: 15.3
- structureString: "O=C(CCCCCCc1nc(-c2ccc(Br)cc2)cs1)NO"
  resultUnit: "µM"
  IC50: 5.68

* * *

# measurementTarget: Histone deacetylase
# procedureText: Inhibition of HDAC from human HeLa cells
# Type: cell-based
# conditionSet: read-out: IC50
valueType: IC50 (nM)

- structureString: "O=C(/C=C/c1ccc(S(=O)(=O)Nc2ccccc2)cc1)NO"
  measurementTarget: "Histone deacetylase"
  resultUnit: "nM"
  obsValue: 29
- structureString: "COc1ccc(-c2nc3ccc(F)cc3o2)cc1NC(=O)NCCCCCC(=O)NO"
  measurementTarget: "Histone deacetylase"
  resultUnit: "nM"
  obsValue: 18
- structureString: "O=C(CCCCCNC(=O)Nc1cccc(-c2nc3ccc(F)cc3o2)c1)NO"
  measurementTarget: "Histone deacetylase"
  resultUnit: "nM"
  obsValue: 9
- structureString: "COc1ccc(-c2nc3cc(F)ccc3o2)cc1NC(=O)NCCCCCC(=O)NO"
  measurementTarget: "Histone deacetylase"
  resultUnit: "nM"
  obsValue: 15

* * *

# measurementTarget: Histone deacetylase 9 (Homo sapiens)
# Sequence (Q9UKV0 whole entry): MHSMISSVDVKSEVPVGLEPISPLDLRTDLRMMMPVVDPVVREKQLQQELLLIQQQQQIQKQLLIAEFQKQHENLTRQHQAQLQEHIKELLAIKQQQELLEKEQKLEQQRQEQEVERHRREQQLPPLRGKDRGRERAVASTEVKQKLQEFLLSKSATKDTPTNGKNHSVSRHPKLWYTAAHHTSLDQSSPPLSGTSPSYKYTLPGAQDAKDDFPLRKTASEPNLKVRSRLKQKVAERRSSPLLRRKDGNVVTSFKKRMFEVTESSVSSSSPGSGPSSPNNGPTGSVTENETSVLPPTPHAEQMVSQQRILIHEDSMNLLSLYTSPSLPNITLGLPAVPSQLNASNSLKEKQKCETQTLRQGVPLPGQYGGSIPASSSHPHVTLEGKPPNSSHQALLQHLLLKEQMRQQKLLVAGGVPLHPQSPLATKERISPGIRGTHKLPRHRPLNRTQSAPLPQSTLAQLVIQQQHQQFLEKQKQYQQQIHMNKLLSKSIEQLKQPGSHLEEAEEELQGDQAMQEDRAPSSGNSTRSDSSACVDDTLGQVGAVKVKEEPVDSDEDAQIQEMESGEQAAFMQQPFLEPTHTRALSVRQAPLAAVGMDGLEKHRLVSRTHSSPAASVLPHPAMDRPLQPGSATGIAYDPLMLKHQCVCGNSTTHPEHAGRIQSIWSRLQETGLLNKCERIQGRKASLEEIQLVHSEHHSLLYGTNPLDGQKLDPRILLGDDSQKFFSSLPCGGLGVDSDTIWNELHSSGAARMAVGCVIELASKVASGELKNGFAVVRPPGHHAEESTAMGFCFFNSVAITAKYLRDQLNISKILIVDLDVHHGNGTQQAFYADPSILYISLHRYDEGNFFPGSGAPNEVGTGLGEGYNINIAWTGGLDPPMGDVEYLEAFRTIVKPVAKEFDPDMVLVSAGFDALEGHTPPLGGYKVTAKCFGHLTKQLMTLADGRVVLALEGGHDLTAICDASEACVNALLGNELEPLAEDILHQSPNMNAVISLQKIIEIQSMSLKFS
pIC50: −log10 of the molar value.

- compound: "CC(C)[C@H]1NC(=O)[C@@H](C)[C@@H](C/C=C\\CCC(=O)O)NC(=O)[C@@H](Cc2ccccc2)NC(=O)[C@@H](C)NC1=O [AZUMAMIDE E]"
  pIC50: 4.55

* * *

# Test system: HCT-116
# procedureText: Inhibition of human HCT116 cells
# Format: functional, cell-based

- structureString: "CC(C)C(=O)SCCCCCCC(=O)Nc1nc(-c2ccccc2)cs1"
  EC50 / nM: 3000

* * *

# measurementTarget: UniProt:O09106
# Sequence (O09106 whole entry): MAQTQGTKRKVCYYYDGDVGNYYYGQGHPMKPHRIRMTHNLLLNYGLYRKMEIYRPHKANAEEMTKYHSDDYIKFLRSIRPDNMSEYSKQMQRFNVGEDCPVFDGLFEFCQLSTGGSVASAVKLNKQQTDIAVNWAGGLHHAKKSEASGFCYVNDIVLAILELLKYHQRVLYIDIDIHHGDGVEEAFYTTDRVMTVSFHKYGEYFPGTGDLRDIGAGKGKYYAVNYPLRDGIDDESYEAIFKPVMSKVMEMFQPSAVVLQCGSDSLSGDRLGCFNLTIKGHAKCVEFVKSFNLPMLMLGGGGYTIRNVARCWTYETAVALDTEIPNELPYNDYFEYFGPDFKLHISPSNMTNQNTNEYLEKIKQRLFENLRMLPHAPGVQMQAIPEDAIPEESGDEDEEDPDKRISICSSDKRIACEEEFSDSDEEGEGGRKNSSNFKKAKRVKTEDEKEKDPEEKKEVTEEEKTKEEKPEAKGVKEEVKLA
pIC50: −log10 of the molar value.
valueType: pIC50

- structureString: "CC(C)(c1ccccc1)c1cc(=O)[nH]c(SCCCCCC(=O)NO)n1"
  obsValue: 6.92

* * *

# measurementTarget: Histone deacetylase
# procedureText: Inhibition of HDAC from human HeLa cells
# Assay type: cell-based

- structureString: "CSCCCCCCC(=O)Nc1ccccc1"
  IC50: "> 100000 nM"
- structureString: "CN(C)c1ccc(CNC(=O)NCCCCCCCC(=O)NO)cc1"
  IC50: "700 nM"
- structureString: "CSCC(=O)CCCCCCC(=O)Nc1ccccc1"
  IC50: "> 40000 nM"
- structureString: "CC(=O)SCC(=O)CCCCCCC(=O)Nc1ccccc1"
  IC50: "81 nM"
- structureString: "O=C(NO)c1ccc(-c2ccccn2)s1"
  IC50: "243 nM"
- structureString: "CN(C)c1ccc(CNC(=O)NCCCCCC(=O)NO)cc1"
  IC50: "800 nM"
- structureString: "CN(C)c1ccc(CNC(=O)NCCCCCCC(=O)NO)cc1"
  IC50: "1000 nM"
- structureString: "CN(C)c1ccc(CNC(=O)NCCCCC(=O)NO)cc1"
  IC50: "800 nM"
- structureString: "O=C(CO)NCCCCCC(=O)Nc1ccccc1"
  IC50: "> 40000 nM"
- structureString: "O=C(NO)c1ccc(-c2ccncc2)s1"
  IC50: "1260 nM"
- structureString: "CC(=O)SCC(=O)NCCCCCC(=O)Nc1ccccc1"
  IC50: "20100 nM"
- structureString: "O=C(CCCCCNC(=S)CS)Nc1ccccc1"
  IC50: "13300 nM"
- structureString: "O=C(NO)c1ccc(-c2cccnc2)s1"
  IC50: "1130 nM"
- structureString: "CN(C)c1ccc(NC(=O)NCCCCCCC(=O)NO)cc1"
  IC50: "700 nM"

* * *

Parameter IC50: see the listing below.
# measurementTarget: Histone deacetylase
# procedureText: Inhibition of HDAC from human Jurkat cells
valueType: IC50 (µM)

- compound: "CCC(c1ccc(/C=C/C(=O)NO)cc1)c1nc2ccccc2n1CC (centres undefined)"
  measurementTarget: "Histone deacetylase"
  obsValue: 0.096
- compound: "O=C(/C=C/c1ccc(CCc2nc3ccccc3[nH]2)cc1)NO"
  measurementTarget: "Histone deacetylase"
  obsValue: 0.14
- compound: "O=C(/C=C/c1ccc(Cc2nc3ccccc3[nH]2)cc1)NO"
  measurementTarget: "Histone deacetylase"
  obsValue: 0.028
- compound: "O=C(/C=C/c1cccc(Cc2nc3ccccc3[nH]2)c1)NO"
  measurementTarget: "Histone deacetylase"
  obsValue: 0.15

* * *

pIC50: −log10 of the molar value.
Form: system (Histone deacetylase 3 (Homo sapiens, UniProt O15379)), quantity (pIC50), values below.

- compound: "CC(=O)CCCCC[C@H](NC1CCCCN1C)C(=O)Nc1nc(-c2ccccc2)cs1 (some centres not stated)"
  pIC50: 7.85
- compound: "CC(C)[C@H]1NC(=O)[C@@H](C)[C@@H](C/C=C\\CCC(=O)O)NC(=O)[C@@H](Cc2ccccc2)NC(=O)[C@@H](C)NC1=O [AZUMAMIDE E]"
  pIC50: 7.10

* * *

# measurementTarget: Histone deacetylase
# procedureText: Inhibition of HDAC from human K562 cells
# Assay type: cell-based
valueType: log10 IC50 (log10 of the value in nM)

- compound: "O=C(O)C(=O)CCCCCCOc1ccc(-c2ccccc2)cc1"
  log10 IC50: 3.57
- compound: "O=C(CCCCCCc1cnc(-c2ccc(-c3ccccc3)cc2)o1)NO"
  log10 IC50: 1.08
- compound: "O=C(CCCCCCc1nc(-c2ccc(-c3ccccc3)cc2)cs1)NO"
  log10 IC50: 1.04
- compound: "COC(=O)C(=O)CCCCCOc1ccc(-c2ccccc2)cc1"
  log10 IC50: 1.91
- compound: "CC(C)[C@H]1NC(=O)[C@@H](C)[C@@H](C/C=C\\CCC(N)=O)NC(=O)[C@@H](Cc2ccccc2)NC(=O)[C@@H](C)NC1=O [AZUMAMIDE A]"
  log10 IC50: 1.65
- compound: "C1=C\\CCCCCC[n+]2cccc(c2)CCCCCCCCCCCC[n+]2cccc(c2)CCCCCC/1"
  log10 IC50: 4.43
- compound: "O=C(CCCCCCc1cnc(-c2ccc(OC(F)(F)F)cc2)o1)NO"
  log10 IC50: 1.95
- compound: "CNC(=O)C(=O)CCCCCCC(=O)Nc1nc(-c2ccc(CCN(C)C)cc2)cs1"
  log10 IC50: 0.49
- compound: "COC(=O)C(=O)CCCCCCCOc1ccc(-c2ccccc2)cc1"
  log10 IC50: 2.04
- compound: "COc1ccc(-c2cnc(CCCCCCC(=O)NO)o2)cc1"
  log10 IC50: 0.32
- compound: "CCNC(=O)C(=O)CCCCCCOc1ccc(-c2ccccc2)cc1"
  log10 IC50: 3.69
- compound: "O=C(CCCCCCc1ncc(-c2ccc(Br)cc2)o1)NO"
  log10 IC50: 0.43
- compound: "C[C@@H]1C(=O)N[C@H](C)C(=O)N[C@H](C)C(=O)N[C@H](Cc2ccccc2)C(=O)N[C@@H]1C/C=C\\CCC(N)=O [AZUMAMIDE D]"
  log10 IC50: 3.11
- compound: "CNC(=O)C(=O)CCCCCCC(=O)Nc1nc(-c2cccnc2)cs1"
  log10 IC50: 0.63
- compound: "O=C(CCCCCCc1cnc(-c2ccc(Br)cc2)o1)NO"
  log10 IC50: 0.64
- compound: "O=C(CCCCCCc1nc(-c2ccccc2)cs1)NO"
  log10 IC50: 1.28
- compound: "O=C(CCCCCCc1ncc(-c2ccccc2)o1)NO"
  log10 IC50: 0.99
- compound: "O=C(CCCCCCc1nc(-c2ccc(Br)cc2)cs1)NO"
  log10 IC50: 0.93
- compound: "O=C(CCCCCCc1nc(-c2ccc(OC(F)(F)F)cc2)cs1)NO"
  log10 IC50: 1.87

* * *

# procedureText: Inhibition of human RFX631L cells
# Type: functional
pEC50: −log10 of the molar value.
valueType: pEC50

- structureString: "CC(C)C(=O)SCCCCCCC(=O)Nc1nc(-c2ccccc2)cs1"
  obsValue: 5.62
